- Assayed System: human MC4R receptor (human, UniProt P32245 1-332)
- Sequence (P32245 whole entry): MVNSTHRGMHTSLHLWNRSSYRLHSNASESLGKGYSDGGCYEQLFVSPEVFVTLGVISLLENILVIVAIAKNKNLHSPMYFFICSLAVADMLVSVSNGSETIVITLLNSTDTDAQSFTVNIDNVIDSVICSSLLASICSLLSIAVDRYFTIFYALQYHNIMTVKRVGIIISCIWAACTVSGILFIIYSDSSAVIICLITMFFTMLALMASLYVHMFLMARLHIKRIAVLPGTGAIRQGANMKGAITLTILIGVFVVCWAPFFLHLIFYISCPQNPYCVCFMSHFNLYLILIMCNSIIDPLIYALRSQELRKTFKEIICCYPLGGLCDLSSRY
- Protocol Text: cell-based or functional assay
Starred links: 1 amine or outer side, 2 acyl side, 3 side chain; linkers in the order of their positions; H or OH if unused. Positions of bridges follow the written chain, without caps; N, C: chain ends. Non-standard residues stand in square brackets, D forms with d. Primed or numbered codes have the meaning given here. dTyr(4-OMe)″ = O-methyl-D-tyrosine, COc1ccc(C[C@@H](N[*:1])C(=O)[*:2])cc1; Cit = NC(=O)NCCC[C@H](N)C(=O)O; Aib = CC(C)(N)C(=O)O
Field: cAMP EC50. Provide a value for each of the binders that follow.
The reply should be a number in nM, with the unit left off.

Task item: Return value of cAMP EC50 for input Ac-RC[Aib][Cit][dTyr(4-OMe)″]RFC-NH2 (disulfide 2-8) [CTX-1299] , no commentary.
Reply: 65

Task item: Return value of cAMP EC50 for input {CH2CO}-GH[dF]RFC-NH2 (thioether N-6; SMILES N=C(N)NCCC[C@@H]1NC(=O)[C@@H](Cc2ccccc2)NC(=O)[C@H](Cc2c[nH]cn2)NC(=O)CNC(=O)CSC[C@@H](C(N)=O)NC(=O)[C@H](Cc2ccccc2)NC1=O) [CTX-1653] , no commentary.
Reply: 1220
